# System: Plasmodium falciparum
# Method Description: Calibr Malaria Delayed Death Assay SOP
# Format: functional, organism-based
# Design: scale not given: in the data most compounds retested in dose-response had high values
# Reported Conditions: concentration 4.99e-06 (unit not given; other assays of the set use mol/L)
In all, about 38,000 compounds went through this assay and about 1,200 (3.2%) showed an effect of 50% or more. The median lay at about -58%. Shown is part of a subset that was picked to be rich in strong results.
Value Kind: Percent Effect (%)
Write the value in % as a bare number.

// worked examples, Percent Effect included
| Compound | Target Of Assay | Percent Effect / % |
| --- | --- | --- |
| CO[C@H]1CCN(Cc2cccs2)[C@@H]2CN(Cc3ccncc3)C[C@H]12.O=C(O)C(F)(F)F.O=C(O)C(F)(F)F.O=C(O)C(F)(F)F | Plasmodium falciparum | 59.98 |
| Cc1ccc(CN2CC[C@H]3[C@H](CC(Cn4cccn4)N3C)C2)s1.O=C(O)C(F)(F)F.O=C(O)C(F)(F)F.O=C(O)C(F)(F)F (stereo partly drawn) | Plasmodium falciparum | 62.61 |
| CN(C)[C@@H]1CCN(c2ncccn2)[C@H]1Cc1ccccc1 | Plasmodium falciparum | 77.2 |

Per the reported Plasmodium falciparum data, CCOC(C)C(=O)N1CCN(S(C)(=O)=O)CC1 (stereo not drawn) has Percent Effect of -95.85

Hey, Plasmodium falciparum data for COCCN1C[C@@H]2[C@@H](OC)CCN(Cc3ccsc3)[C@@H]2C1.O=C(O)C(F)(F)F.O=C(O)C(F)(F)F : Percent Effect came out at 66.72

* * *

# System: Plasmodium falciparum
# Method Description: Calibr Malaria Delayed Death Assay SOP
# Assay type: functional, organism-based
# Design: scale not given: in the data most compounds retested in dose-response had high values
# Reported Conditions: concentration 4.99e-06 (unit not given; other assays of the set use mol/L)
The campaign covered roughly 38,000 compounds. About 1,200 (3.2%) showed an effect of 50% or more. The median lay at about -58%. The list comes from a sample in which strong results are over-represented; it also holds close analogues and randomly drawn compounds.
Think of -20% as a floor: if Percent Effect stands on it or above, it is true; beneath it, false.

| Molecule | Target Of Assay | Group Label |
| --- | --- | --- |
| COc1ccc(NC(=O)c2cc3c([nH]c2=O)CCCC3=O)c(OC)c1 | Plasmodium falciparum | false |

Check if Percent Effect >= -20% (inclusive). Item: COc1ccccc1S(=O)(=O)NCC(c1cccn1C)N(C)C (centres undefined)
true

Could you verify whether the entry CN(Cc1cc2cc(F)ccc2[nH]1)C(=O)C1CC(=O)N(C2CC2)C1 (centres undefined) shows Percent Effect of no less than -20%?
true

Has CC(C)n1ccnc1CN1CCOC(CCc2ccccc2)C1 (centres undefined) a recorded Percent Effect greater than or equal to -20%?
true

hey, is Percent Effect for this one >= -20%? CCc1nn(C)c(Cl)c1CN1CCCC(c2cc(O)nc(C)n2)C1 (centres undefined)
true

Reported Percent Effect at or above -20%? O=C(NCC(=O)N1CCCC1Cc1cccc(F)c1)C1CCCC1 (centres undefined)
false

Decide: Percent Effect of COc1c(CNC2CCN(C(=O)C(C)C)CC2)c(C(C)C)nn1C >= -20%?
false

Test whether the molecule Cc1nc(CN2CCO[C@H]3[C@@H](Oc4ccccn4)CC[C@@H]32)cs1.O=C(O)C(F)(F)F.O=C(O)C(F)(F)F records Percent Effect of -20% or higher.
false

Hi team, for COc1ccc(CNCC(C)Oc2ccccn2)cc1Cl.Cl (centres undefined) , is the recorded Percent Effect at or above -20%?
true

Please indicate if the recorded Percent Effect for O[C@H]1CC[C@@H](Cc2cc(-c3ccc(F)cc3)on2)O[C@@H]1CNCC1CC1 meets or exceeds -20%.
true

hey, is Percent Effect for this one >= -20%? Cc1ccc(CNC(C)(C)c2noc(C(C)(C)C)n2)o1
false

* * *

# Tested on: Plasmodium falciparum
# Method Description: Calibr Malaria Delayed Death Assay SOP
# Assay type: functional, organism-based
# Set-up: scale not given: in the data most compounds retested in dose-response had high values
# Reported Conditions: concentration 4.99e-06 (unit not given; other assays of the set use mol/L)
About 1,200 (3.2%) of roughly 38,000 compounds showed an effect of 50% or more. The median lay at about -58%. The list comes from a sample in which strong results are over-represented; it also holds close analogues and randomly drawn compounds.
Value Kind: Percent Effect (%)
# unit: % | format: bare number

| Compound | Target Of Assay | Percent Effect [%] |
| --- | --- | --- |
| Cc1cccc(N2CCOCC3(C2)CN(c2ccoc2)C(=O)CO3)n1.O=C(O)C(F)(F)F (centres undefined) | Plasmodium falciparum | 65.62 |

According to the records, this compound CCCN1CCN(CC(O)c2ccc(OC(F)(F)F)cc2)CC1 (centres undefined) displays Percent Effect of 42.81

Entry under test: c1cc(-c2cnccn2)cc(-c2ccn(CCN3CCCC3)n2)c1 . Its Percent Effect was 67.88

Recorded result, Cc1nc(C2CCCNC2)cc(N(C)CCc2ccccc2)n1 (centres undefined) , Percent Effect: 52.76

For CC(=O)N1CCC2(CC1)CN(C(=O)c1cccnc1)c1ccc(F)cc12.O=C(O)C(F)(F)F the compound record lists Percent Effect as -38.16

Looking up Cn1nc2c(cc1=O)CN(Cc1nc(N)c3ccccc3n1)CC2 , I see its Percent Effect listed as -169.7

* * *

# Test system: Plasmodium falciparum
# Method Description: Calibr Malaria Delayed Death Assay SOP
# Format: functional, organism-based
# Parameters: scale not given: in the data most compounds retested in dose-response had high values
# Reported Conditions: concentration 4.99e-06 (unit not given; other assays of the set use mol/L)
In all, about 38,000 compounds went through this assay and about 1,200 (3.2%) showed an effect of 50% or more. The median lay at about -58%. The full list was thinned out, with strong results kept by preference.
Examples of compounds with documented Percent Effect follow.
The figure you give is taken to be in %; do not add the unit.

Some entries whose results are on file:
| Compound | Unit Info | Percent Effect |
| --- | --- | --- |
| Cc1ccc(CN2Cc3nccn3CC(CN(C)C)C2)s1.O=C(O)C(F)(F)F.O=C(O)C(F)(F)F (stereo unspecified) | % | -55.03 |
| FC(F)(F)C1CN(Cc2cccc(OCc3ccccn3)c2)CCO1 (stereo unspecified) | % | -40.76 |
| CCN(CC)CC1CN(Cc2ccc(C)s2)Cc2nccn2C1.O=C(O)C(F)(F)F.O=C(O)C(F)(F)F (stereo unspecified) | % | 66.72 |
| O=S(=O)(c1ccc(-c2cnco2)cc1)N1CCCC(O)(CO)CC1 (stereo unspecified) | % | -42.75 |
| COc1cc(F)ccc1-c1cc(N)ccn1 | % | 50.95 |

Pending compound:
In plain terms, CN1CCCC2(CCN(S(=O)(=O)c3ccc(-c4cnco4)s3)C2)C1=O (stereo unspecified) has a documented Percent Effect of -20.09

* * *

# System: Plasmodium falciparum
# Method Description: Calibr Malaria Delayed Death Assay SOP
# Type: functional, organism-based
# Parameters: scale not given: in the data most compounds retested in dose-response had high values
# Reported Conditions: concentration 4.99e-06 (unit not given; other assays of the set use mol/L)
In all, about 38,000 compounds went through this assay and about 1,200 (3.2%) showed an effect of 50% or more. The median lay at about -58%. What follows is part of a selection rich in strong results, with near analogues and random picks from the rest.
Percent Effect listing for selected compounds.
Give the number first and the unit second.

Below are worked cases with known answers.
| Compound | Percent Effect |
| --- | --- |
| Cc1noc(C(C)C)c1C(=O)N1CCOCC1CC(=O)c1ccco1 (stereo unspecified) | -42.91% |
| CN(C)CC(=O)N1CCC2(CC1)Cc1ccccc1CN(C)C2=O.O=C(O)C(F)(F)F | -24.83% |
| CC(C)NC(=O)C1CN(C(=O)CCc2ccccc2)CC12CCOCC2 (stereo unspecified) | -79.45% |
| COc1ccc(-c2nc3c([nH]2)CCCNC3=O)cc1OC | -190.2% |
| C[C@@H]1CN(C(=O)CCN2CCCC2)CC[C@@]1(O)C1CCOCC1 | -34.11% |

Next compound, Percent Effect to be filled in.
Per the records, this compound ( CCC(O)(CNCc1cc[nH]n1)c1ccc(Br)cc1 (stereo unspecified) ) has Percent Effect equal to 76.25%

* * *

# Test system: Plasmodium falciparum
# Method Description: Calibr Malaria Delayed Death Assay SOP
# Format: functional, organism-based
# Parameters: scale not given: in the data most compounds retested in dose-response had high values
# Reported Conditions: concentration 4.99e-06 (unit not given; other assays of the set use mol/L)
Screen size: about 38,000 compounds; about 1,200 (3.2%) showed an effect of 50% or more. The median lay at about -58%. For the sample, strong results were picked, then their nearest neighbours and some compounds at random.
Value Kind: Percent Effect (%)
Your answer is read as %, so omit the unit and give the number.

| Compound | Value Kind | Result Number |
| --- | --- | --- |
| Cn1cc(CNC(=O)C2CCCN(Cc3cccc(F)c3)C2)cn1 (stereo unspecified) | Percent Effect | -63.48 |

Note to self: Percent Effect recorded for CCc1ccc(CN(CCN(C)C)Cc2ccc(C)s2)nc1 was 91.79

For record Cn1cc(C[C@H]2[C@H](O)CCN2Cc2ccc(F)cc2)cn1.O=C(O)C(F)(F)F the listed Percent Effect is 1.719

Measured Percent Effect, c1cnn(CC2CCN(c3nc(C4CC4)nc4c3CCNCC4)CC2)c1 : 90.7
